Tested on: E. coli TESEC Alr+ wild-type control
ASSAY PROTOCOL: growth (OD600 after 10 h); higher = more growth (less inhibition)
TEST SETTINGS: compound 0.1 mM; raw OD600 reference: median of DMSO wells 0.49, cell-free background 0.052
Structures can show the parent of a compound that is named as a salt.
Hi, to clarify the labels: Condition met covers growth from 0.4 upward, Condition not met covers anything below 0.4.

>  <COMPOUND>
C=CC1=C(C(=O)O)N2C(=O)[C@@H](NC(=O)/C(=N\O)c3csc(N)n3)[C@H]2SC1

>  <GROUP LABEL>
Condition not met

$$$$
>  <COMPOUND>
Cc1ncc(C[n+]2csc(CCO)c2C)c(N)n1 [Thiamine hydrochloride]

>  <GROUP LABEL>
Condition met

$$$$
>  <COMPOUND>
Cc1ccc(-c2cc(C(F)(F)F)nn2-c2ccc(S(N)(=O)=O)cc2)cc1

>  <GROUP LABEL>
Condition met

$$$$
>  <COMPOUND>
c1coc(CNc2ncnc3nc[nH]c23)c1

>  <GROUP LABEL>
Condition met

$$$$
>  <COMPOUND>
O=C(O)CN(CCN(CC(=O)O)CC(=O)O)CCN(CC(=O)O)CC(=O)O

>  <GROUP LABEL>
Condition not met

$$$$

Enquiry: Given the entry C[C@H]1C[C@H]2[C@@H]3CCC4=CC(=O)C=C[C@]4(C)[C@@]3(F)[C@@H](O)C[C@]2(C)[C@@]1(O)C(=O)CO , answer whether its growth meets or surpasses 0.4.
Return: Condition met

Enquiry: Given the entry COc1ccc(NS(=O)(=O)c2ccc(N)cc2)nn1 , answer whether its growth meets or surpasses 0.4.
Return: Condition met
